Tested on: OVCAR-4 ovarian
ASSAY_PROCEDURE: NCI-60 one-dose screen, 48 h (100 = growth as untreated, 0 = no growth, -100 = all killed)
PROTOCOL_CONDITIONS: 10 µM
About 83,000 compounds went through this panel and 20% of them were active in at least one assay; those are over-represented in the sample as a whole.
RECORDED_ENDPOINT: growth (%)
Supply the numeric figure in %, leaving out any unit text.

compound=C=CCN=C([Se])NC(=O)c1ccc2c(c1)OCO2 unit_label=% meas_value=108
compound=C#CC[Se]C(=O)c1ccc(C(=O)[Se]CC#C)s1 unit_label=% meas_value=103
compound=O=C(NC([Se])=NC1CCCCC1)c1ccccc1 unit_label=% meas_value=75.7

Query :: Recorded growth of COC(=O)CCn1c(-c2ccc(-n3cc(-c4ccc(O[C@H]5O[C@@H]6OC7(C)CC[C@H]8[C@H](C)CC[C@@H]([C@H]5C)[C@@]68OO7)cc4)nn3)cc2)nc2ccccc21 , please.
Result :: 34.2

Query :: Also, CC(=O)Oc1ccccc1C(=O)NC([Se])=NC1CCCCC1 please.
Result :: -13.3

###

Test system: HL-60(TB) leukemia
ASSAY_PROCEDURE: NCI-60 one-dose screen, 48 h
PROTOCOL_CONDITIONS: 10 µM unless noted
The panel holds about 83,000 compounds, 20% with a hit somewhere; the sample as a whole holds those more often. Activity calls are given as the source filed them. How the source made its calls: active means growth percent below 10; inactive means the rest.
Answer with one of the outcomes given here: active, inactive

Example entries and their recorded answers appear below.
compound=Nc1cc(-c2c[nH]c3ccc(Br)cc23)nc2cc(-c3c[nH]c4ccccc34)nn12 category=active
compound="COc1cc(C2CC(c3ccc(F)cc3)=Nc3c(N)nc(N)nc3N2)ccc1Oc1nc(Nc2ccc(F)cc2)nc(N(C)C)n1 (centres undefined)" category=inactive
compound="CC(=C\\C(=O)Oc1ccc2c3c1OC1C(O)CCC4(O)C(C2)N(CC2CCC2)CCC314)/C=C1\\CCCc2ccccc21 (centres undefined)" category=inactive
compound=COc1cc2cc(C(=O)N3C[C@@H](CCl)c4c3cc(OC(=O)N3CCN(C(=O)CCC(=O)N5CCN(C)CC5)[C@@H]5CSSC[C@@H]53)c3ccccc43)[nH]c2c(OC)c1OC category=active

# ---- query compound ----
Query :: // outcome(item) with item = C=CC(=O)Nc1ccc(C(=O)/C=C/c2ccc(N(C)CCF)cc2)c(O)c1
Result :: active

###

Test system: MDA-MB-468 breast
ASSAY_PROCEDURE: NCI-60 one-dose screen, 48 h (100 = growth as untreated, 0 = no growth, -100 = all killed)
PROTOCOL_CONDITIONS: 10 µM unless noted
About 83,000 compounds went through this panel and 20% of them were active in at least one assay; those are over-represented in the sample as a whole.
Friendly reminder: growth below 80% is yes, at or above is no.

Example entries and their recorded answers appear below.
compound=C=COC(=O)CCN1CC1 tested_system="MDA-MB-468 breast" category=no
compound=CC1=C[C@H]2O[C@@H]3C[C@H]4OC(=O)/C=C\C=C\[C@H]([C@@H](C)O)OCC/C(C)=C/C(=O)OC[C@@]2(CC1)[C@]4(C)[C@]31CO1 tested_system="MDA-MB-468 breast" category=yes
compound="CCC(=O)C(CC(C)N1CCCCCC1)(c1ccccc1)c1ccccc1 (stereo not given)" tested_system="MDA-MB-468 breast" category=no
compound=CC[C@H](C)[C@H](NC(=O)[C@H]1CCCCN1C)C(=O)N(C)[C@H](C(=O)NC12CC(C(=O)N[C@@H](Cc3ccccc3)C[C@H](C)C(=O)OC)(C1)C2)C(C)C tested_system="MDA-MB-468 breast" category=no

Query :: Strictly below 80%: is that where growth of COc1cc2c(cc1OCc1ccccc1)C(CC(C)C)=[N+](C)CC2 sits?
Result :: yes

Query :: Also, CC(=C\C(=O)Oc1ccc2c3c1OC1C(O)CCC4(O)C(C2)N(CC2CCC2)CCC314)/C=C1\CCCc2ccccc21 (stereo not given) please.
Result :: yes

Query :: Also, Cc1cc(N(CCCl)CCCl)ccc1C=Nc1ccc2ccccc2c1 please.
Result :: yes

Query :: Also, COc1cc(C=Nc2cc(Cl)cc(Cl)c2)ccc1N(CCCl)CCCl please.
Result :: yes

Query :: Also, N#CCN(CC#N)[N+](=O)[O-] please.
Result :: no

Query :: Also, CCOC(=O)C(NC(=O)C(Cc1ccc(N(CCCl)CCCl)cc1)NC(C)=O)C(C)C (stereo not given) please.
Result :: no

Query :: Also, CN(CCCCN(C)CCOS(C)(=O)=O)CCOS(C)(=O)=O please.
Result :: yes
